Tested on: Giardia intestinalis
Experiment: Inhibitory activity for 50% on growth of Giardia lamblia in cell culture
Assay type: functional, organism-based
Settings: Giardia duodenalis
pIC50: −log10 of the molar value.

MOLECULE: Cl.Cl.c1cc(-c2ccc(-c3ccc(C4=NC5CCCCC5N4)cc3)o2)ccc1C1=NC2CCCCC2N1 (configuration not stated)
pIC50: 5.40
//
MOLECULE: Cl.c1cc(-c2ccc(-c3ccc(C4=NCCN4)cc3)o2)ccc1C1=NCCN1
pIC50: 5.71
//
MOLECULE: Cl.Cl.OCCN1CCN=C1c1ccc(-c2ccc(-c3ccc(C4=NCCN4CCO)cc3)o2)cc1
pIC50: 5.34
//
MOLECULE: CCN1CCN=C1c1ccc(-c2ccc(-c3ccc(C4=NCCN4CC)cc3)o2)cc1.Cl.Cl
pIC50: 5.48
//
MOLECULE: Cl.Cl.c1cc(-c2ccc(-c3ccc(C4=NCCCCN4)cc3)o2)ccc1C1=NCCCCN1
pIC50: 6.03
//
MOLECULE: N[C+](N)c1ccc(-c2ccc(-c3ccc([C+](N)N)cc3)o2)cc1
pIC50: 6.36
//
MOLECULE: Cl.Cl.c1cc(-c2ccc(-c3ccc(C4=NCCCN4)cc3)o2)ccc1C1=NCCCN1
pIC50: 7.07

----------
Biological target: DNA topoisomerase II (Giardia lamblia)
Assay: Inhibitory activity for 50% on topoisomerase II isolated from Giardia lamblia
QUANTITY_NAME: log10 of IC50 (log10 of the value in nM)

COMPOUND: Cl.c1cc(-c2ccc(-c3ccc(C4=NCCN4)cc3)o2)ccc1C1=NCCN1
log10 of IC50: 3.48
//
COMPOUND: Cl.Cl.c1cc(-c2ccc(-c3ccc(C4=NCCCCN4)cc3)o2)ccc1C1=NCCCCN1
log10 of IC50: 3.18
//
COMPOUND: Cl.Cl.c1cc(-c2ccc(-c3ccc(C4=NCCCN4)cc3)o2)ccc1C1=NCCCN1
log10 of IC50: 2.70
//
COMPOUND: Cl.Cl.c1cc(-c2ccc(-c3ccc(C4=NC5CCCCC5N4)cc3)o2)ccc1C1=NC2CCCCC2N1 (stereo unspecified)
log10 of IC50: 3.48
//
COMPOUND: CCN1CCN=C1c1ccc(-c2ccc(-c3ccc(C4=NCCN4CC)cc3)o2)cc1.Cl.Cl
log10 of IC50: 4.40
//
COMPOUND: Cl.Cl.OCCN1CCN=C1c1ccc(-c2ccc(-c3ccc(C4=NCCN4CCO)cc3)o2)cc1
log10 of IC50: 4.30

Reference for the values: ChEMBL document CHEMBL1128267
